Would you kindly list GI50 for each of these compounds?
# ASSAY PROTOCOL: Antiproliferative activity against human HT-29 cells after 48 hrs by SRB assay
# Format: functional
# ASSAY SETUP: HT-29, 48 h
Form entry: value (µM) — number only.

The recorded GI50 for entry CC(C)(C)c1ccc(-c2cc(N3CCC(CNS(N)(=O)=O)CC3)ncn2)cc1 equals 8.9

Measured GI50, CCCCc1ccc(-c2cc(N3CCC(CNS(N)(=O)=O)CC3)ncn2)cc1 : 15.2

NS(=O)(=O)NCC1CCN(c2cc(-c3ccc(Cl)cc3)ncn2)CC1 has a reported GI50 of 37.7

Record summary for NS(=O)(=O)NCC1CCN(c2cc(-c3ccc(C(F)(F)F)cc3)ncn2)CC1 : reported GI50 = 29.1

The measured GI50 associated with CC(C)(C)c1ccc(-c2cc(N3CCC(CCNS(N)(=O)=O)CC3)ncn2)cc1 reads 10.3

// Cc1ccc(-c2cc(N3CCC(CNS(N)(=O)=O)CC3)ncn2)cc1 : GI50 value = 33.9

# compound COc1ccc(-c2cc(N3CCC(CCNS(N)(=O)=O)CC3)ncn2)cc1 ; its GI50 = 72.3

// recorded GI50 for NS(=O)(=O)NCCC1CCN(c2cc(-c3ccccc3Cl)ncn2)CC1 : 52.9

* * *

# ASSAY PROTOCOL: Antiproliferative activity against neonatal-NHDF cells
# Assay type: cell-based
# ASSAY SETUP: human
VALUE KIND: GI50 (µM)
Field: numeric (µM). Do not append units.

Note to self: GI50 recorded for COc1ccc(-c2cc(N3CCC(CNS(N)(=O)=O)CC3)ncn2)cc1 was 77

The measured GI50 associated with NS(=O)(=O)NCC1CCN(c2cc(-c3ccccc3Cl)ncn2)CC1 reads 93

* * *

# ASSAY PROTOCOL: Antiproliferative activity against human M21 cells after 48 hrs by SRB assay
# Type: functional
# ASSAY SETUP: M21, 48 h
VALUE KIND: log10 GI50 (log10 of the value in µM)
All values: log10 GI50 [µM].

// sample NS(=O)(=O)NCCC1CCN(c2cc(-c3cccc4ccccc34)ncn2)CC1 , its log10 GI50 was 0.26

Entry NS(=O)(=O)NCCC1CCN(c2cc(-c3cccc(Cl)c3)ncn2)CC1 ; log10 GI50 = 1.71

The compound listed as NS(=O)(=O)NCCC1CCN(c2cc(-c3ccccc3Cl)ncn2)CC1 shows log10 GI50 equal to 1.97

GET /value?item= Cc1ccc(-c2cc(N3CCC(CCNS(N)(=O)=O)CC3)ncn2)cc1 &field=log10 GI50 returns 1.76

For this compound ( COc1ccccc1-c1cc(N2CCC(CCNS(N)(=O)=O)CC2)ncn1 ), measured log10 GI50 is 1.99

Given item CCCCc1ccc(-c2cc(N3CCC(CCNS(N)(=O)=O)CC3)ncn2)cc1 , the value recorded as its log10 GI50 is 1.18

Form: compound = COc1ccc(-c2cc(N3CCC(CCNS(N)(=O)=O)CC3)ncn2)cc1 ; log10 GI50 = 1.84

log10 GI50 reported for this compound CC(C)(C)c1ccc(-c2cc(N3CCC(CCNS(N)(=O)=O)CC3)ncn2)cc1 : 1.26

Reported log10 GI50 of COC(=O)c1ccc(-c2cc(N3CCC(CCNS(N)(=O)=O)CC3)ncn2)cc1 : 1.29

NS(=O)(=O)NCCC1CCN(c2cc(-c3ccc(Cl)cc3)ncn2)CC1 yielded log10 GI50 of 1.66

response.value for NS(=O)(=O)NCC1CCN(c2cc(-c3cccc(Cl)c3)ncn2)CC1 (field: log10 GI50) = 1.80

Recorded log10 GI50 (compound CC(C)(C)c1ccc(-c2cc(N3CCC(CNS(N)(=O)=O)CC3)ncn2)cc1 ): 1.29

Documented log10 GI50 of NS(=O)(=O)NCC1CCN(c2cc(-c3cccc4ccccc34)ncn2)CC1 : 0.82

Entry Cc1ccc(-c2cc(N3CCC(CNS(N)(=O)=O)CC3)ncn2)cc1 — recorded log10 GI50 = 1.85
